# target-under-test: GTPase KRas (Homo sapiens, UniProt P01116, G12C)
# assay-explanation: Inhibition of KRAS G12C mutant (2 to 188 residues) (unknown origin) expressed in Escherichia coli assessed as inhibition of SOS mediated nucleotide exchange measured after 18 hrs by HTRF assay
Provide the recorded IC50 for the entries that follow.
Reply numerically in nM, unit not repeated.

Query block: Which IC50 is reported for this molecule? C=CC(=O)N1CCN(c2nc(OC[C@@H]3C[C@H](F)CN3C)nc3c2C[C@@H](C)[C@H](c2cc(O)cc4ccccc24)C3)[C@@H](C)C1
Result block: 11

Query block: Which IC50 is reported for this molecule? C=CC(=O)N1CCN(c2nc(OCc3cn(C)cn3)nc3c2CC[C@H](c2cc(O)cc4ccccc24)C3)[C@@H](C)C1
Result block: 470

====

Provide the recorded IC50 for the entries that follow.
# target-under-test: GTPase KRas (Homo sapiens, UniProt P01116, G12C)
# assay-explanation: Inhibition of KRAS G12C mutant (2 to 188 residues) (unknown origin) expressed in Escherichia coli assessed as inhibition of SOS mediated nucleotide exchange at 4 degreeC for 18 hrs by HTRF assay

Query block: Which IC50 is reported for this molecule? C=CC(=O)N1CCN(c2nc(OC[C@@H]3CCCN3C)nc3c2CC[C@@]2(CCc4ccccc4C2)C3)C[C@@H]1CC#N
Result block: 51 nM

Query block: Which IC50 is reported for this molecule? C=CC(=O)N1CCN(c2nc(OC[C@@H]3CCCN3C)nc3c2CC[C@]2(CCc4ccccc4C2)C3)C[C@@H]1CC#N
Result block: 60 nM

Query block: Which IC50 is reported for this molecule? C=CC(=O)N1CCN(c2nc(OC[C@@H]3CCCN3C)nc3c2CCC2(CCc4ccccc4C2)C3)C[C@@H]1CC#N (stereo partly drawn)
Result block: 46 nM

====

Provide the recorded IC50 for the entries that follow.
# target-under-test: GTPase KRas (Homo sapiens, UniProt P01116, G12C)
# assay-explanation: Inhibition of KRAS G12C mutant (2 to 188 residues) (unknown origin) expressed in Escherichia coli assessed as inhibition of SOS mediated nucleotide exchange at 21 degreeC for 15 mins by HTRF assay
Reply numerically in nM, unit not repeated.

Query block: Which IC50 is reported for this molecule? C=CC(=O)N1CCN(c2nc(OC[C@@H]3CCCN3C)nc3c2CC[C@]2(CCc4ccccc4C2)C3)C[C@@H]1CC#N
Result block: 131

Query block: Which IC50 is reported for this molecule? C=CC(=O)N1CCN(c2nc(OC[C@@H]3CCCN3C)nc3c2CC[C@@]2(CCc4ccccc4C2)C3)C[C@@H]1CC#N
Result block: 291

Query block: Which IC50 is reported for this molecule? C=CC(=O)N1CCN(c2nc(OC[C@@H]3CCCN3C)nc3c2CCC2(CCc4ccccc4C2)C3)C[C@@H]1CC#N (stereo partly drawn)
Result block: 142
